- measurement-notes: Mouse pharmacokinetic assay
- Format: in vivo, Balb/c mice
- details: po; mouse plasma, i.g. (10 mg/kg)
observation-type: AUC(0-t) (ng·h/mL)
Report as a plain number; the unit ng·h/mL is understood.

## Task What value of AUC(0-t) has been reported for the following compound? Cc1ncnc(C(=O)N2[C@@H](C)CN(c3c4n(c5nc(C6=CCOCC6)nn5c3=O)[C@@H](C(=O)Nc3ccc(C(F)(F)F)cc3Cl)CCC4)C[C@@H]2C)c1O
## Result 38500

----------
CYP1A2 (Homo sapiens): recorded IC50 for assorted compounds

Illustrative cases are given below, each with its answer.
Cc1ncnc(C(=O)N2[C@@H](C)CN(c3c4n(c5nc(C6=CCOCC6)nn5c3=O)[C@@H](C(=O)Nc3ccc(C(F)(F)F)cc3Cl)CCC4)C[C@@H]2C)c1O [Compound 20-A] : > 30 µM
Cc1ncnc(C(=O)N2CCN(c3c4n(c5nc(C6=CCOCC6)nn5c3=O)C(C(=O)Nc3ccc(C(F)(F)F)cc3Cl)CCC4)C[C@H]2C)c1O (single isomer, unassigned) [Compound 8-B] : > 30 µM

# evaluate next
## Task What value of IC50 has been reported for the following compound? Cc1ncnc(C(=O)N2CCN(c3c4n(c5nc(C6=CCOCC6)nn5c3=O)[C@@H](C(=O)Nc3ccc(C(F)(F)F)cc3Cl)CCC4)CC2)c1O [Compound 1-B]
## Result > 30 µM

----------
CYP2D6 (Homo sapiens, UniProt P10635): recorded IC50 for assorted molecules

Illustrative cases are given below, each with its answer.
Cc1ncnc(C(=O)N2[C@@H](C)CN(c3c4n(c5nc(C6=CCOCC6)nn5c3=O)[C@@H](C(=O)Nc3ccc(C(F)(F)F)cc3Cl)CCC4)C[C@@H]2C)c1O : > 30 µM
Cc1ncnc(C(=O)N2CCN(c3c4n(c5nc(C6=CCOCC6)nn5c3=O)C(C(=O)Nc3ccc(C(F)(F)F)cc3Cl)CCC4)C[C@H]2C)c1O (single isomer, unassigned) : > 30 µM

# evaluate next
## Task Short answer please: IC50, CYP2D6 (Homo sapiens, UniProt P10635), entry Cc1ncnc(C(=O)N2CCN(c3c4n(c5nc(C6=CCOCC6)nn5c3=O)[C@@H](C(=O)Nc3ccc(C(F)(F)F)cc3Cl)CCC4)CC2)c1O
## Result > 30 µM

----------
- target-under-test: WRN protein (AA N517-P1238, ICE, Cat. S2212T-H56HZ) (Homo sapiens)
- Construct: WRN protein (AA N517-P1238, ICE, Cat. S2212T-H56HZ)
- Sequence (Q14191 517-1238, stated change not applied): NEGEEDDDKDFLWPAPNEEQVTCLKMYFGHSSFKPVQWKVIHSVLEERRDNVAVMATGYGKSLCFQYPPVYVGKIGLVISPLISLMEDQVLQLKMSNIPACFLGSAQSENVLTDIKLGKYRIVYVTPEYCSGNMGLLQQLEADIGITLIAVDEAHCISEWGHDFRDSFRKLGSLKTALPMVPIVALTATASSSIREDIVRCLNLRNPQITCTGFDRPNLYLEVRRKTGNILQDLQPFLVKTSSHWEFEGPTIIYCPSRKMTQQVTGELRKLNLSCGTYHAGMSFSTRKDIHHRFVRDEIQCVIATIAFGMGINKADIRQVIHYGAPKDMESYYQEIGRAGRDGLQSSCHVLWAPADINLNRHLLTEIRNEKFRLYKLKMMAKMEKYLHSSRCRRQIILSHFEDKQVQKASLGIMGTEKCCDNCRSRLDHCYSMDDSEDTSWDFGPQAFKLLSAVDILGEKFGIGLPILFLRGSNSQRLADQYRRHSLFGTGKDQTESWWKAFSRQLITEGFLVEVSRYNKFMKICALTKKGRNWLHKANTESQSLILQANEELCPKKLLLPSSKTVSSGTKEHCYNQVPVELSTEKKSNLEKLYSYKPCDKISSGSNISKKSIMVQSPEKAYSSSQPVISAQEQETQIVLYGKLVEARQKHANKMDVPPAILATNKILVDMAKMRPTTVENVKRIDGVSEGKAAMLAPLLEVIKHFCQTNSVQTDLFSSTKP
- measurement-notes: Assay for WRN helicase activity (FORKF dsDNA unwinding, fluorescence)
- details: inhibition of WRN helicase activity; 10 nM WRN, 10 nM FORKF, 2 mM ATP
observation-type: IC50

Illustrative cases are given below, each with its answer.
Cc1ncnc(C(=O)N2CCN(c3c4n(c5nc(C6=CCOCC6)nn5c3=O)C(C(=O)Nc3ccc(C(F)(F)F)cc3Cl)CC4)CC2)c1O (single isomer, unassigned) : < 20 nM
Cc1ncnc(C(=O)N2[C@@H](C)CN(c3c4n(c5nc(C6=CCOCC6)nn5c3=O)[C@@H](C(=O)Nc3ccc(C(F)(F)F)cc3Cl)CCC4)C[C@@H]2C)c1O : < 20 nM

## Task What value of IC50 has been reported for the following compound? Cc1ncnc(C(=O)N2CCN(c3c4n(c5nc(C6=CCOCC6)nn5c3=O)C(C(=O)Nc3ccc(C(F)(F)F)cc3F)CCC4)CC2)c1O (single isomer, unassigned)
## Result < 20 nM

----------
- measurement-notes: Mouse pharmacokinetic assay
- Type: in vivo, Balb/c mice
- details: po; mouse plasma, i.g. (10 mg/kg); read-out: F (%)
- Description: 4.1. Experimental animals: Male Balb/c mice, about 22 g, 6-8 weeks old, 6 mice/compound. The animals were purchased from CHENGDU DOSSY EXPERIMENTAL ANIMALS CO., LTD. 4.2. Experimental design: On the day of the experiment, the Balb/c mice were randomly grouped according to their body weights. The animals were fasted with water available for 12-14 h one day before the administration, and were fed 4 h after the administration. Table 4. Administration information […]
observation-type: bioavailability
The reply should read as a number followed by its unit.

## Task What value of bioavailability has been reported for the following compound? Cc1ncnc(C(=O)N2[C@@H](C)CN(c3c4n(c5nc(C6=CCOCC6)nn5c3=O)[C@@H](C(=O)Nc3ccc(C(F)(F)F)cc3Cl)CCC4)C[C@@H]2C)c1O [Compound 20-A]
## Result 93.4%

Ref: patent EP4755890A1
